For each entry below, report its MIC Streptococcus agalactiae (GC 4564) value.
tested on: Streptococcus sp.; experiment: in vitro antibacterial evaluation, MIC by broth dilution; format: cell-based; details: broth dilution, 18 hours at 35° C.
Give bare numbers, in µg/mL.

Worked cases, answers included:
| compound | MIC Streptococcus agalactiae (GC 4564) (µg/mL) |
| --- | --- |
| COc1ccc2cc(COCC3OC(OC4C(CO)OC(Oc5ccc(CC6NC(=O)C(C(C)c7ccccc7)NC(=O)CNC(=O)C(CO)NC(=O)C(C(O)C7CNC(=N)N7C7OC(CO)C(O)C(O)C7O)NC(=O)C(C(O)C7CNC(=N)N7)NC6=O)cc5)C(O)C4O)C(O)C(O)C3O)ccc2c1 (stereo not shown) | 0.5 |
| COc1ccc(COC2C(CO)OC(OC3C(CO)OC(Oc4ccc(CC5NC(=O)C(C(C)c6ccccc6)NC(=O)CNC(=O)C(CO)NC(=O)C(C(O)C6CNC(=N)N6C6OC(CO)C(O)C(O)C6O)NC(=O)C(C(O)C6CNC(=N)N6)NC5=O)cc4)C(O)C3O)C(O)C2O)cc1OCc1ccccc1 (stereo not shown) [Example 239a] | 1 |

# input for lookup
Consider the compound CC(c1ccccc1)C1NC(=O)CNC(=O)C(CO)NC(=O)C(C(O)C2CNC(=N)N2C2OC(CO)C(O)C(O)C2O)NC(=O)C(C(O)C2CNC(=N)N2)NC(=O)C(Cc2ccc(OC3OC(CO)C(OC4OC5COC6(CCSCC6)OC5C(O)C4O)C(O)C3O)cc2)NC1=O (stereo not shown) and give its recorded MIC Streptococcus agalactiae (GC 4564).
2
